TARGET_OR_SYSTEM: S. Typhimurium SdiA (Salmonella enterica subsp. enterica serovar Typhimurium, UniProt O66040)
Sequence (O66040 entry or part of it): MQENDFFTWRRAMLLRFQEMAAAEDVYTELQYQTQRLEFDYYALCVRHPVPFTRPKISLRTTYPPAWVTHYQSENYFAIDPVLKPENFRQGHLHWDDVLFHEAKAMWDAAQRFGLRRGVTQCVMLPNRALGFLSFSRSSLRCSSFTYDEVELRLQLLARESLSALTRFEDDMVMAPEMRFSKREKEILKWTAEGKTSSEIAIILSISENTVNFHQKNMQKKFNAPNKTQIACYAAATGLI
EXPERIMENT_NOTES: E. coli JLD271-pJN105SE-pSC11SE SdiA reporter, agonism
Description: Biological assays for SdiA activity. Cell-based reporter strains that rely on detecting the transcriptional activity of LuxR-type receptors are commonly used to assess the activity of exogenous ligands. We used the S. Typhimurium-pJNS25 reporter strain constructed by Smith and Ahmer and also used by Janssens et al. to examine SdiA activity. […] SdiA activity is then measured using standard β-galactosidase assays. […]
QUANTITY: EC50 (nM)
Give your result in nM as a bare value.

Need EC50, item CCCCCC(=O)CC(=O)N[C@H]1CCOC1=O [compound 2, reference compound] 1.5

###

TARGET_OR_SYSTEM: S. Typhimurium SdiA (Salmonella enterica subsp. enterica serovar Typhimurium, UniProt O66040)
EXPERIMENT_NOTES: E. coli JLD271-pJN105SE-pSC11SE SdiA reporter, antagonism (β-galactosidase)
QUANTITY: pIC50
Just so you know, pIC50 here is -log10 of the concentration in molar units; reply with that number alone.

Using the record for O=C(CCCCCCCCCN=C=S)CC(=O)N[C@H]1CCOC1=O [compound 11, reference compound] , report its pIC50. 6.42

###

TARGET_OR_SYSTEM: SdiA (Salmonella enterica subsp. enterica serovar Typhimurium, UniProt O66040)
EXPERIMENT_NOTES: S. Typhimurium-pJNS25 SdiA reporter, agonism (luminescence)
Type: cell-based
PROTOCOL_CONDITIONS: agonism dose–response
Assign EC50 to each entry below.
Express your answer in nM, writing the number without its unit.

Fill in: EC50 of "O=C(Cc1ccc(I)cc1)N[C@H]1CCOC1=O" is ___ 47.2

One more molecule: "[N-]=[N+]=NCCCCCCCCCCCC(=O)N[C@H]1CCOC1=O" 125

###

TARGET_OR_SYSTEM: SdiA (Salmonella enterica subsp. enterica serovar Typhimurium, UniProt O66040)
EXPERIMENT_NOTES: S. Typhimurium-pJNS25 SdiA reporter, competitive antagonism against 10 nM L-OOHL
Format: cell-based
PROTOCOL_CONDITIONS: 100 μM compound; average ± STD, change in activity from 10 nM 2 (OOHL); read-out: Antagonism 100 μM Inhibition (%)
Protocol: Biological assays for SdiA activity. Cell-based reporter strains that rely on detecting the transcriptional activity of LuxR-type receptors are commonly used to assess the activity of exogenous ligands. We used the S. Typhimurium-pJNS25 reporter strain constructed by Smith and Ahmer and also used by Janssens et al. to examine SdiA activity. […] SdiA activity is then measured using standard β-galactosidase assays. […]
QUANTITY: inhibition at 100 µM (%)
// return numeric value only (unit: %, not printed)

Any idea what inhibition at 100 µM was measured for O=C(CCCOc1cccc(Br)c1)N[C@H]1CCSC1=O [compound 16, reference compound] ? 84

Check CCCCCCCC(=O)CC(=O)N[C@H]1CCOC1=O [A7] too. -2

Please answer likewise for CCCCCCCCCCCCCCCC(=O)N[C@H]1CCOC1=O [A6] 38

Entry to check: CCCCCCC(CCCC)C(=O)N[C@H]1CCOC1=O (some centres unmarked) [S2] 2

Quick one: CCCCCC(=O)CC(=O)N[C@H]1CCOC1=O [compound 2, reference compound] 9
